This section presents molecules with their documented Dmax values.
# SYSTEM_TESTED: BRAF V600E (Homo sapiens, UniProt P15056, V600E)
# Construct: endogenous C-terminal HiBiT fusion tag on BRAF V600E allele; endogenous in cells; host or cells: A375 clone 1F10 (CRISPR-Cas9 knock-in of the HiBiT tag; parental A375 from ATCC)
# Sequence (P15056 whole entry V600E, the tested form may be a part): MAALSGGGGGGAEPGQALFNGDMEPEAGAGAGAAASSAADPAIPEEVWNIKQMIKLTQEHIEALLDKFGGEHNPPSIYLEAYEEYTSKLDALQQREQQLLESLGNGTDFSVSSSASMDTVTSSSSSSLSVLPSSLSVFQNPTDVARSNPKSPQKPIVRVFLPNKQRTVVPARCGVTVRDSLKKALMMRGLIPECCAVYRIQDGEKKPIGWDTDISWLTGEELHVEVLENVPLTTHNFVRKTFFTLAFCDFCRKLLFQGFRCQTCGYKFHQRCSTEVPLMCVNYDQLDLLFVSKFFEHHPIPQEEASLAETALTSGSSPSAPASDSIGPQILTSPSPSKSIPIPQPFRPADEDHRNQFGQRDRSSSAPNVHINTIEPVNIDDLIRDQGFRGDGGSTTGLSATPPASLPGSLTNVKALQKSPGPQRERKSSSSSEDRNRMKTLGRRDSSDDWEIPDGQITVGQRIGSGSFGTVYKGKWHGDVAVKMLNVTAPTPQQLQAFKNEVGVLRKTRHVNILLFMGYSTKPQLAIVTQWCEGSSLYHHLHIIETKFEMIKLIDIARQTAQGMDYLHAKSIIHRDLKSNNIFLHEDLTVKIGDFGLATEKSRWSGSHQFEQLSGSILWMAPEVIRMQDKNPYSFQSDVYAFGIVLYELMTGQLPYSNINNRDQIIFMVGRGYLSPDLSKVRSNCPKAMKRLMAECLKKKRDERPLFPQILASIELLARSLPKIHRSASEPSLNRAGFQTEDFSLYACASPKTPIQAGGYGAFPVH
# ASSAY_METHOD_TEXT: BRAF HiBiT degradation assay, C-terminal HiBiT-tagged BRAF V600E A375 cells (clone 1F10), Nano-Glo HiBiT Lytic assay
# Assay type: cell-based
# CONDITION_SUMMARY: A-375; A375 (BRAF V600E); percentage protein degraded at maximal compound effect relative to DMSO

Examples with their reported Dmax follow.
- MOLECULE: "CCCS(=O)(=O)Nc1cccc(-c2nc(C(C)(C)C)sc2-c2ccnc(N[C@H]3CC[C@@H](N4CCN(CC5CCN(c6ccc(C7CCC(=O)NC7=O)cn6)CC5)CC4)CC3)n2)c1F (mixture of isomers) [Compound 134]"
  SYSTEM_TESTED: "BRAF V600E (Homo sapiens, UniProt P15056, V600E)"
  Dmax: "> 70%"
- MOLECULE: "CCCS(=O)(=O)Nc1cccc(-c2nc(C(C)(C)C)sc2-c2ccnc(Nc3cnn(C4CCN(CC5CCN(c6ccc(C(=O)NC7CCC(=O)NC7=O)nc6)CC5)CC4)c3)n2)c1F (racemic) [Compound 79]"
  SYSTEM_TESTED: "BRAF V600E (Homo sapiens, UniProt P15056, V600E)"
  Dmax: "30 to 70%"
- MOLECULE: "CCCS(=O)(=O)Nc1cccc(-c2nc(C(C)(C)C)sc2-c2ccnc(NC3CC4(C3)CN(CC3CCN(c5ccc(C(=O)NC6CCC(=O)NC6=O)cc5)CC3)C4)n2)c1F (racemic) [Compound 170]"
  SYSTEM_TESTED: "BRAF V600E (Homo sapiens, UniProt P15056, V600E)"
  Dmax: "30 to 70%"
- MOLECULE: "CCCS(=O)(=O)Nc1cccc(-c2cn(-c3ccc(C4CCN(CC5CCN(c6ccc(C7CCC(=O)NC7=O)cn6)CC5)CC4)cc3)nc2-c2ccncc2)c1F (racemic) [Compound 24]"
  SYSTEM_TESTED: "BRAF V600E (Homo sapiens, UniProt P15056, V600E)"
  Dmax: "> 70%"

**Query** Reported Dmax, molecule CCCS(=O)(=O)Nc1cccc(-c2nc(C(C)(C)C)sc2-c2ccnc(Nc3cccc(C4CCN(CC[C@H]5CCN(c6ccc(C7CCC(=O)NC7=O)cn6)C5)CC4)c3)n2)c1F (mixture of isomers) [Compound 74] : ____
**Result** 30 to 70%

----------
This section presents compounds with their documented DC50 values.
# SYSTEM_TESTED: BRAF G466V (Homo sapiens, UniProt P15056, G466V)
# Construct: Horizon Discovery (HCT-116 BRAF−/− cells); host or cells: HCT-116 BRAF−/− cells, clone 8, lentiviral transduction
# Sequence (P15056 whole entry G466V): as the sequence (P15056 whole entry V600E, the tested form may be a part) above, with G466V, E600V counted along it
# ASSAY_METHOD_TEXT: BRAF HiBiT degradation assay, C-terminal HiBiT-tagged BRAF G466V overexpressed in HCT-116 BRAF−/− cells (clone 8), Nano-Glo HiBiT Lytic assay
# Format: cell-based
# CONDITION_SUMMARY: BRAF G466V; DC50 at 50%: fitted conc. at Y=50

Examples with their reported DC50 follow.
- COMPOUND: "CCCS(=O)(=O)Nc1cccc(-c2nc(C(C)(C)C)sc2-c2ccnc(Nc3cccc(OC4CCN(CC[C@H]5CCN(c6ccc(C7CCC(=O)NC7=O)cn6)C5)CC4)c3)n2)c1F (mixture of isomers) [Compound 69]"
  OBSERVED_MEASUREMENT: "> 500 nM"
- COMPOUND: "CCCS(=O)(=O)Nc1cccc(-c2nc(C3CCN(C(=O)CN4CCC5(CC4)CN(c4ccc6c(c4)C(=O)N(C4CCC(=O)NC4=O)C6=O)C5)CC3)sc2-c2ccnc(NC)n2)c1F (racemic) [Compound 219]"
  OBSERVED_MEASUREMENT: "< 10 nM"
- COMPOUND: "CCCS(=O)(=O)Nc1cccc(-c2nc(C(C)(C)C)sc2-c2ccnc(Nc3cnn(C4CCN(C(=O)[C@H]5CC[C@H](Oc6ccc(C7CCC(=O)NC7=O)cc6)CC5)CC4)c3)n2)c1F (mixture of isomers) [Compound 110]"
  OBSERVED_MEASUREMENT: "> 500 nM"
- COMPOUND: "CCCS(=O)(=O)Nc1cccc(-c2nc(C3CCN(C4CN(C(=O)CC5CCN(c6ccc(C7CCC(=O)NC7=O)cc6)CC5)C4)CC3)sc2-c2ccnc(N)n2)c1F (racemic) [Compound 215]"
  OBSERVED_MEASUREMENT: "> 500 nM"
- COMPOUND: "CCCS(=O)(=O)Nc1cccc(-c2nc(C(C)(C)C)sc2-c2ccnc(Nc3cnn(CC4CCN(C[C@H]5CC[C@H](Oc6ccc(C7CCC(=O)NC7=O)cc6)CC5)CC4)c3)n2)c1F (mixture of isomers) [Compound 84]"
  OBSERVED_MEASUREMENT: "> 500 nM"
- COMPOUND: "CCCS(=O)(=O)Nc1cccc(-c2nc(C3CCN(C(=O)C4CCN(CC5CCN(c6cccc7c6n(C)c(=O)n7C6CCC(=O)NC6=O)CC5)CC4)CC3)sc2-c2ccnc(N)n2)c1F (racemic) [Compound 195]"
  OBSERVED_MEASUREMENT: "< 10 nM"

**Query** Please provide the recorded DC50 for CCCS(=O)(=O)Nc1cccc(-c2nc(C)sc2-c2ccnc(Nc3ccc(N4CCN(CC5CCN(c6ccc([C@@H]7CCC(=O)NC7=O)cc6)CC5)CC4)cn3)n2)c1F [Compound 61] , tested on BRAF G466V (Homo sapiens, UniProt P15056, G466V).
**Result** > 500 nM

**Query** Please provide the recorded DC50 for CCN(C)S(=O)(=O)Nc1cccc(-c2nc(C(C)(C)C)sc2-c2ccnc(Nc3ccc(N4CCN(CC5CC6(C5)CN(c5ccc(C7CCC(=O)NC7=O)cn5)C6)CC4)cn3)n2)c1F (racemic) [Compound 30] , tested on BRAF G466V (Homo sapiens, UniProt P15056, G466V).
**Result** 10 to 50 nM

**Query** Please provide the recorded DC50 for CCCS(=O)(=O)Nc1cccc(-c2nc(C3CCN(C(=O)C4CCN(CC5CCN(c6ccc(C7CCC(=O)NC7=O)cn6)CC5)CC4)CC3)sc2-c2ccnc(NC)n2)c1F (racemic) [Compound 217] , tested on BRAF G466V (Homo sapiens, UniProt P15056, G466V).
**Result** > 500 nM

**Query** Please provide the recorded DC50 for CCCS(=O)(=O)Nc1cccc(-c2nc(C(C)(C)C)sc2-c2ccnc(Nc3cccc(OC4CCN(CC5(C)CCN(c6ccc(C7CCC(=O)NC7=O)cn6)CC5)CC4)c3)n2)c1F (racemic) [Compound 68] , tested on BRAF G466V (Homo sapiens, UniProt P15056, G466V).
**Result** 50 to 500 nM

**Query** Please provide the recorded DC50 for CCCS(=O)(=O)Nc1cccc(-c2cn(-c3ccc(C4CCN(CC5CCN(c6ccc(C7CCC(=O)NC7=O)cc6)CC5)CC4)cc3)nc2-c2ccncc2)c1F (racemic) [Compound 25] , tested on BRAF G466V (Homo sapiens, UniProt P15056, G466V).
**Result** 10 to 50 nM

**Query** Please provide the recorded DC50 for CCCS(=O)(=O)Nc1cccc(-c2nc(C3(C)CCN(C(=O)C4CCN(CC5CCN(c6ccc(C7CCC(=O)NC7=O)cc6)CC5)CC4)CC3)sc2-c2ccnc(N)n2)c1F (racemic) [Compound 227] , tested on BRAF G466V (Homo sapiens, UniProt P15056, G466V).
**Result** > 500 nM

**Query** Please provide the recorded DC50 for CCCS(=O)(=O)Nc1cccc(-c2nc(C3CCN(C(=O)C4CCN(C(=O)C5CCN(c6ccc(C7CCC(=O)NC7=O)cn6)CC5)CC4)CC3)sc2-c2ccnc(N[C@H](C)CO)n2)c1F (mixture of isomers) [Compound 180] , tested on BRAF G466V (Homo sapiens, UniProt P15056, G466V).
**Result** < 10 nM

**Query** Please provide the recorded DC50 for CCCS(=O)(=O)Nc1cccc(-c2nc(C3CCC4(CC3)CCN(C(=O)C3CCN(c5ccc6c(c5)C(=O)N(C5CCC(=O)NC5=O)C6=O)CC3)CC4)sc2-c2ccnc(N)n2)c1F (racemic) [Compound 245] , tested on BRAF G466V (Homo sapiens, UniProt P15056, G466V).
**Result** > 500 nM

**Query** Please provide the recorded DC50 for CCCS(=O)(=O)Nc1cccc(-c2nc(C(C)(C)C)sc2-c2ccnc(Nc3ccc(N4CCN(CC5CCN(c6ccc(C7CCC(=O)NC7=O)cn6)CC5)CC4)c(F)c3)n2)c1F (racemic) [Compound 45] , tested on BRAF G466V (Homo sapiens, UniProt P15056, G466V).
**Result** < 10 nM
